Origin of the recorded values: patent US11358948B2

target: His-tagged CRBN-DDB1 complex (Homo sapiens (Human)); test: Time-Resolved Fluorescence Resonance Energy Transfer (TR-FRET) assay, displacement of Cy5-labeled thalidomide; conditions: read-out: CRBN HTRF IC50
Sequence (Q96SW2 whole entry): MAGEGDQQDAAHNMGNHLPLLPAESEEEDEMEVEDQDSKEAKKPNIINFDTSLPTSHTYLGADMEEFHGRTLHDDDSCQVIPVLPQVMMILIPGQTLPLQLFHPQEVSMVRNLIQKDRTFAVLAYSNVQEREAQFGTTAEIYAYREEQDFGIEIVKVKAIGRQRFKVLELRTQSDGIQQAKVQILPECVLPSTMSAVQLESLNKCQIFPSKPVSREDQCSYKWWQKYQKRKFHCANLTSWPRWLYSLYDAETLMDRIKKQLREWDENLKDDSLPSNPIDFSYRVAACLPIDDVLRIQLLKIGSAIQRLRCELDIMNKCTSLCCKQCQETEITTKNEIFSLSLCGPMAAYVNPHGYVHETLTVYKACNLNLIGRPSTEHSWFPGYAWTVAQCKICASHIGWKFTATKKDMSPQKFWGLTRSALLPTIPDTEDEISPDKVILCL
Sequence (Q16531 whole entry partner): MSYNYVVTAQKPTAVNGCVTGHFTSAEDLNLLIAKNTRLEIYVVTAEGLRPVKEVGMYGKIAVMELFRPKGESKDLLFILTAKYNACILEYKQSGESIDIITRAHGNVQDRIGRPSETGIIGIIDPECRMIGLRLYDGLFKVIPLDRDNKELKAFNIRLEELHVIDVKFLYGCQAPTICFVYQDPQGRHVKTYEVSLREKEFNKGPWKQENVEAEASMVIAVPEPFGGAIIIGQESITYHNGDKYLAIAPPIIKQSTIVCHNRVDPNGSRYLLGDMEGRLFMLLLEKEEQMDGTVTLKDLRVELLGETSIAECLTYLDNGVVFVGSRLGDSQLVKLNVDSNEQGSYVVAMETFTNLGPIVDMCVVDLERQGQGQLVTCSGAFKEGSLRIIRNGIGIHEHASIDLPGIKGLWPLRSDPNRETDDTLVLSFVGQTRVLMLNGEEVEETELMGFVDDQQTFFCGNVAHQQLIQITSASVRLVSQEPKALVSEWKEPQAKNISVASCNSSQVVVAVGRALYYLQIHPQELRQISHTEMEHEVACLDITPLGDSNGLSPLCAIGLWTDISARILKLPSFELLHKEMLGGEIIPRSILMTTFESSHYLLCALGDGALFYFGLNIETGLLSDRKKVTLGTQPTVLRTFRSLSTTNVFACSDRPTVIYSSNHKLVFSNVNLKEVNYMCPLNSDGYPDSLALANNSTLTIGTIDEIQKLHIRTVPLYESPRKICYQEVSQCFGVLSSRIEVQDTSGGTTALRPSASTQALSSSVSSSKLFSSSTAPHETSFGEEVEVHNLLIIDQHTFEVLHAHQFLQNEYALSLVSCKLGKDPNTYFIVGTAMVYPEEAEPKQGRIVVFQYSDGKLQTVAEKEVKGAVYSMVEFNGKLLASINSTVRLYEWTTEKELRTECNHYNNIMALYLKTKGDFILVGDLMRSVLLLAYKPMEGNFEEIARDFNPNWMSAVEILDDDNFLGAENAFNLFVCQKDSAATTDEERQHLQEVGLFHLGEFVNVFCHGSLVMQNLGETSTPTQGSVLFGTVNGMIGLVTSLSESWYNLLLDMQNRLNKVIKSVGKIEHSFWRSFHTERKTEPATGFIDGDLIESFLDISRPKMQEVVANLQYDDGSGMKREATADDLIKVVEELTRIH
Counter-ions that a name gives are not always drawn.
assay readout: IC50

For the compound shown here, CN(C)c1ccc2c(c1)n(C)c(=O)n2C1CCC(=O)NC1=O (stereo not drawn) [Compound I-69] , give the reported IC50.
< 1 µM

For the compound shown here, O=C1CC[C@H](N2C[C@H](c3ccc(Br)cc3)OC2=O)C(=O)N1 [Compound I-73] , give the reported IC50.
10 to 100 µM

For the compound shown here, Cn1c(=O)n(C2CCC(=O)NC2=O)c2ccc(N)cc21 (stereo not drawn) [Compound I-65, Hydrochloride] , give the reported IC50.
< 1 µM

For the compound shown here, O=C1CCC(N2C(=O)Cc3ccccc32)C(=O)N1 (stereo not drawn) [Compound I-3] , give the reported IC50.
10 to 100 µM

For the compound shown here, CCNC(=O)NCc1ccc2c(c1)n(C)c(=O)n2C1CCC(=O)NC1=O (stereo not drawn) [Compound I-71] , give the reported IC50.
< 1 µM

For the compound shown here, Cn1c(=O)n(C2CCC(=O)NC2=O)c2cccc(C#N)c21 (stereo not drawn) [Compound I-78] , give the reported IC50.
< 1 µM
